Molecular target: human GPR120 (Homo sapiens)
Construct: host or cells: HEK293 cells co-expressing Gqi5
Sequence (Q5NUL3 whole entry): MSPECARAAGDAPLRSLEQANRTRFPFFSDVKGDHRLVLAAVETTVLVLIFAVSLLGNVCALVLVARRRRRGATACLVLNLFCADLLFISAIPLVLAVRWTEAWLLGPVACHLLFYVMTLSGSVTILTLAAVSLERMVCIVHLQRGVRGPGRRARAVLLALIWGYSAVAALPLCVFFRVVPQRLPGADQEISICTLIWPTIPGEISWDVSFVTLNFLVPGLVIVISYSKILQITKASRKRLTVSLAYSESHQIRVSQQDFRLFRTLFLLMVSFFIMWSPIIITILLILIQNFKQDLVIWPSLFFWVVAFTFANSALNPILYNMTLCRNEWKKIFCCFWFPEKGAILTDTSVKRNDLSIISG
Experiment: Intracellular Ca2+ assay in human GPR120 stable cell line (HEK293 co-expressing Gqi5), Flexstation
Assay type: cell-based
Conditions: % activity at 5 μM compared to the maximal activity of GW9508 at 6.7 μM (=100%); human GPR120 cells, Ca2+ fluorescence
endpoint: % Activity (GW9508 Reference Compound) (%)

| compound | endpoint | unit_text | measured_result |
| --- | --- | --- | --- |
| CCN(CC)c1cc(COc2ccc(CC(C)C(=O)O)cc2)c2c(c1)CC(C)(C)O2 (stereo not drawn) | % Activity (GW9508 Reference Compound) | % | 82.28 |
| Cc1c(CCC(=O)O)ccc(OCc2cc(Cl)cc3c2CC(C)(C)O3)c1C | % Activity (GW9508 Reference Compound) | % | 140.82 |
| CC1(C)Cc2cc(Cl)cc(COc3ccc4c(c3)CC(C(=O)O)C4)c2O1 (stereo not drawn) | % Activity (GW9508 Reference Compound) | % | 115.42 |
| CC1(C)Cc2cc(F)cc(COc3ccc(CCCC(=O)O)cc3)c2O1 | % Activity (GW9508 Reference Compound) | % | 172.13 |
| CCc1c(CCC(=O)O)ccc(OCc2cc(F)cc3c2OC(C)(C)C3)c1F | % Activity (GW9508 Reference Compound) | % | 144.23 |
| CCc1cc(OCc2cc(F)cc3c2OC(C)(C)C3)ccc1CCC(=O)O | % Activity (GW9508 Reference Compound) | % | 151.44 |
| CC1(C)Cc2cc(Cl)cc(COc3ccc(CCC(=O)O)c(F)c3)c2O1 | % Activity (GW9508 Reference Compound) | % | 143.19 |
| CC(Cc1ccc(OCc2ccc(F)c3c2CC(C)(C)O3)cc1)C(=O)O (stereo not drawn) | % Activity (GW9508 Reference Compound) | % | 121.29 |
| [2H]C1([2H])c2cc(Cl)cc(COc3ccc(CC(C)C(=O)O)cc3C(F)(F)F)c2OC1(C)C (stereo not drawn) | % Activity (GW9508 Reference Compound) | % | 138.65 |
| CC(Cc1cc(F)c(OCc2cc(F)cc3c2OC(C)(C)C3)c(F)c1)C(=O)O (stereo not drawn) | % Activity (GW9508 Reference Compound) | % | 130.0714 |
| CC1(C)Cc2cc(F)cc(COc3ccc4c(c3)CCCC4CC(=O)O)c2O1 (stereo not drawn) | % Activity (GW9508 Reference Compound) | % | 106.81 |
| CC(C)Oc1cc(OCc2cc(Cl)cc3c2OC(C)(C)C3)ccc1CCC(=O)O | % Activity (GW9508 Reference Compound) | % | 145.6 |
| CC(Cc1ccc(COc2cccc3c2OC(C)(C)C3)c(F)c1)C(=O)O (stereo not drawn) | % Activity (GW9508 Reference Compound) | % | 157.14 |
| CC(C)Oc1ccc(Cl)cc1COc1cc2c(cc1F)C(CC(=O)O)CC2 (stereo not drawn) | % Activity (GW9508 Reference Compound) | % | 124.62 |
| CCc1cc(OCc2cc(F)cc3c2OC(C)(C)C3)c(F)cc1CCC(=O)O | % Activity (GW9508 Reference Compound) | % | 115.86 |
| Cc1cc2cc(Cl)cc(COc3ccc(CC(C)C(=O)O)cc3F)c2o1 (stereo not drawn) | % Activity (GW9508 Reference Compound) | % | 104.49 |
| Cc1cc(OCC(=O)O)ccc1OCc1cc(Cl)cc2c1OC(C)(C)C2 | % Activity (GW9508 Reference Compound) | % | 98.96 |
| CC(Cc1cc(F)c(OCc2cccc3c2OC(C)(C)CC3)c(F)c1)C(=O)O (stereo not drawn) | % Activity (GW9508 Reference Compound) | % | 134.6745 |
| CC1(C)Cc2cc(F)cc(COc3ccc4cc(C(=O)O)ccc4c3)c2O1 | % Activity (GW9508 Reference Compound) | % | 123.58 |
| CC1(C)Cc2c(COc3ccc4c(c3)CC[C@@H]4CC(=O)O)cc(F)cc2O1 | % Activity (GW9508 Reference Compound) | % | 104.04 |
| Cc1nc2cccc(COc3c(F)cc(CC(C)C(=O)O)cc3F)c2o1 (stereo not drawn) | % Activity (GW9508 Reference Compound) | % | 108.78 |
| CC(Cc1ccc(OCc2c(F)ccc3c2CC(C)(C)O3)cc1)C(=O)O (stereo not drawn) | % Activity (GW9508 Reference Compound) | % | 124.82 |
| CC(Cc1ccc(OCc2cc(F)cc3c2OCOC3)cc1)C(=O)O (stereo not drawn) | % Activity (GW9508 Reference Compound) | % | 79.58 |
| CCc1cc(OCc2cccc3c2CC(C)(C)O3)ccc1CCC(=O)O | % Activity (GW9508 Reference Compound) | % | 146.18 |
| CC1(C)Cc2cc(F)cc(COc3ccc(CCC(=O)O)c(OC(F)(F)F)c3)c2O1 | % Activity (GW9508 Reference Compound) | % | 140.51 |
| CC(Cc1ccc(OCc2ccc(C(F)(F)F)c3c2OC(C)(C)C3)cc1)C(=O)O (stereo not drawn) | % Activity (GW9508 Reference Compound) | % | 117.9 |
| CC1(C)Cc2cc(F)cc(COc3ccc4c(c3)CCC4CC(=O)O)c2O1 (stereo not drawn) | % Activity (GW9508 Reference Compound) | % | 124.7 |
